Could you please report measured residual activity for the items listed next?
targetOrTestSystem: Testis-specific serine/threonine-protein kinase 1 (Homo sapiens) (UniProt Q9BXA7)
Sequence (Q9BXA7 whole entry): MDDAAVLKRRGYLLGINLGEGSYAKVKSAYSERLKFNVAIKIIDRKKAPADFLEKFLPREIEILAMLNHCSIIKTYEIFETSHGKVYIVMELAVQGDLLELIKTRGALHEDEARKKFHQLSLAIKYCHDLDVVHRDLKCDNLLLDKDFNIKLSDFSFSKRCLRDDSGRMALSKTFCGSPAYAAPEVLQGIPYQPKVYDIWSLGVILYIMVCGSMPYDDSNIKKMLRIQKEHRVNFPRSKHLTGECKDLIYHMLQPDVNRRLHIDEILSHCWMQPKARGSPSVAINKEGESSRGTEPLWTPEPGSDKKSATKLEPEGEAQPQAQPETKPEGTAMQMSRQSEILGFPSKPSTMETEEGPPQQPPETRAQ
experimentalConditions: at 10 µM
Kindly answer with a numeric value in %, unit omitted.

**Query** Consider the molecule CCN(CC)C(=O)c1ccc(Nc2nc(OCC3CCCCC3)c3nc[nH]c3n2)cc1 and give its measured residual activity.
**Result** 2

**Query** Sample O=[N+]([O-])c1ccc(-c2nc(-c3ccc(F)cc3)c(-c3ccncc3)[nH]2)cc1 — what was its residual activity?
**Result** 85

**Query** Entry under review: CC(C)n1cnc2/c(=N/c3cccc(Cl)c3)nc(NCCO)[nH]c21 . Reported residual activity?
**Result** 60

**Query** So what's the measured residual activity for this one? Cn1nc2c3c(cccc31)C(=O)c1ccccc1-2
**Result** 79

**Query** Dear colleague, I am looking for the recorded residual activity of the following molecule: COc1cc2ncc(-c3ccccc3)nc2cc1OC
**Result** 92

**Query** Any idea what its residual activity is? The molecule is Cn1cc(/C=C2\C(=O)Nc3ccc(S(N)(=O)=O)cc32)c2ccccc21
**Result** 14

**Query** Looking for the measured residual activity of O=c1cc(-c2cccc3c2Sc2ccccc2S3)oc(N2CCOCC2)c1 , can you help?
**Result** 98

**Query** Value lookup for residual activity; key = Nc1n[nH]c2nnc(-c3c(-c4ccccc4)nn4ccccc34)cc12
**Result** 90

**Query** What does the record list as residual activity for Oc1c2ccccc2c2c3c(cccc13)N=N2 ?
**Result** 49

**Query** Can you look up the measured residual activity of CO[C@@H]1[C@H](N(C)C(=O)c2ccccc2)C[C@H]2O[C@]1(C)n1c3ccccc3c3c4c(c5c6ccccc6n2c5c31)C(=O)NC4 for me?
**Result** 6

* * *

targetOrTestSystem: Serine/threonine-protein kinase Nek11 (Homo sapiens) (UniProt Q8NG66)
Sequence (Q8NG66 whole entry): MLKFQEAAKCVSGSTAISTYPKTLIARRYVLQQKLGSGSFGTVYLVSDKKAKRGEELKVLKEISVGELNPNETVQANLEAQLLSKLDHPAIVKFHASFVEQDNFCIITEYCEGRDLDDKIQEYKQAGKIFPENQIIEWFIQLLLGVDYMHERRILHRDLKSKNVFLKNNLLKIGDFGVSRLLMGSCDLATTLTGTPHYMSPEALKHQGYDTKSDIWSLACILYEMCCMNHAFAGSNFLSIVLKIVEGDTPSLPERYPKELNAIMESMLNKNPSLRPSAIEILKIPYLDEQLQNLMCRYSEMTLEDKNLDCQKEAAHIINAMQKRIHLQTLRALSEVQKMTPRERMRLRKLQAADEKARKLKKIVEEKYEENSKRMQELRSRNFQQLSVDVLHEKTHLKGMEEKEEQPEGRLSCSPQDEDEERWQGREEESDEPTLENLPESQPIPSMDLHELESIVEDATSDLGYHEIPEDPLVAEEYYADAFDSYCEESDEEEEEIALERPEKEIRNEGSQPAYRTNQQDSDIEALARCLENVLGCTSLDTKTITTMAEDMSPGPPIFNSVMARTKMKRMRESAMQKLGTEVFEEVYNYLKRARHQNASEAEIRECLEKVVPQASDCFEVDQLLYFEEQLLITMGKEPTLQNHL
experimentalConditions: at 10 µM
Consider the following molecules; for each one, report its residual activity.
Please give a number only; it is taken to be in %.

**Query** Request body: readout residual activity, system Serine/threonine-protein kinase Nek11 (Homo sapiens) (UniProt Q8NG66), query N#C/C(=C(\N)Sc1ccc(N)cc1)c1ccccc1C(F)(F)F . Return the value.
**Result** 68

**Query** Param readout = residual activity; param system = Serine/threonine-protein kinase Nek11 (Homo sapiens) (UniProt Q8NG66); param query = COc1cc2ncnc(Nc3ccc(NC(=O)c4ccccc4)cc3)c2cc1OC ; response: value
**Result** 103

**Query** Write down the reported residual activity of O=c1c2ccccc2[nH]c(=S)n1CCN1CCC(=C(c2ccc(F)cc2)c2ccc(F)cc2)CC1 , test system: Serine/threonine-protein kinase Nek11 (Homo sapiens) (UniProt Q8NG66).
**Result** 98

**Query** Checklist item: residual activity tested on Serine/threonine-protein kinase Nek11 (Homo sapiens) (UniProt Q8NG66), entry CCC(=O)Nc1ccc2ncnc(Nc3cccc(Br)c3)c2c1 , value?
**Result** 92

**Query** # get_value(readout= residual activity, system= Serine/threonine-protein kinase Nek11 (Homo sapiens) (UniProt Q8NG66)) for CO[C@@H]1[C@H](N(C)C(=O)c2ccccc2)C[C@H]2O[C@]1(C)n1c3ccccc3c3c4c(c5c6ccccc6n2c5c31)C(=O)NC4
**Result** 49

**Query** Which measured residual activity belongs to Cc1nc2cc3nc(-c4cccs4)cnc3cc2n1C , tested on Serine/threonine-protein kinase Nek11 (Homo sapiens) (UniProt Q8NG66)?
**Result** 102

**Query** Give the reported residual activity for Cc1cccc(-c2[nH]c(C(C)(C)C)nc2-c2ccc3c(c2)OCO3)n1 (system: Serine/threonine-protein kinase Nek11 (Homo sapiens) (UniProt Q8NG66)).
**Result** 107

**Query** Hi! What's the reported residual activity for Nc1nc(Nc2ccc(S(N)(=O)=O)cc2)nn1C(=S)Nc1c(F)cccc1F on Serine/threonine-protein kinase Nek11 (Homo sapiens) (UniProt Q8NG66)?
**Result** 30

**Query** Item: O=C1NC(=O)/C(=C\c2ccc3nccnc3c2)S1 Test system: Serine/threonine-protein kinase Nek11 (Homo sapiens) (UniProt Q8NG66) Read-out: residual activity Value: ?
**Result** 35

**Query** Hello, I am looking for reported residual activity with Serine/threonine-protein kinase Nek11 (Homo sapiens) (UniProt Q8NG66) for N#CC(C#N)=C(N)/C(C#N)=C/c1ccc(O)cc1 . Could you help?
**Result** 97

* * *

targetOrTestSystem: cGMP-dependent protein kinase 1 (Homo sapiens) (UniProt Q13976)
Sequence (Q13976 whole entry): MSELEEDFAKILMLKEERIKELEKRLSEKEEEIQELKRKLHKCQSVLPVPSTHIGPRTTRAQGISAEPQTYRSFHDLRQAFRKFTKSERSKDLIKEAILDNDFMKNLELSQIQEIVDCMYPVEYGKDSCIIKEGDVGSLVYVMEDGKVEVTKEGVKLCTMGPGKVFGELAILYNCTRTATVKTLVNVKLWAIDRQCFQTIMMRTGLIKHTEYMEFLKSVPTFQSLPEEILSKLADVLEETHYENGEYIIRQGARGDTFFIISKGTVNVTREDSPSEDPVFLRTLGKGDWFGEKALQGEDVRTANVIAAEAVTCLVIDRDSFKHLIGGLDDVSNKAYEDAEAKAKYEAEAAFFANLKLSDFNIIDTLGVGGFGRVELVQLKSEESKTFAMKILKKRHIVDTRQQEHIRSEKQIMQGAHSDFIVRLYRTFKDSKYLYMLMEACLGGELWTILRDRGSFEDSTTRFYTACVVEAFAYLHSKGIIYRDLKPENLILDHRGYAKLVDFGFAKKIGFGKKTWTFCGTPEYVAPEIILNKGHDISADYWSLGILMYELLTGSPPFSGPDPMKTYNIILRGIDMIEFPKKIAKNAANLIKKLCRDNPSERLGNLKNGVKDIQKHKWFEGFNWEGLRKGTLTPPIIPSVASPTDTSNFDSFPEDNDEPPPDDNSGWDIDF
experimentalConditions: at 1 µM
Please provide measured residual activity for the entries that follow.
Record the value in %, omitting the unit from your answer.

**Query** residual activity lookup needed for COc1cc2ncnc(Nc3ccc(Oc4ccccc4)cc3)c2cc1OC , thanks.
**Result** 76

**Query** For the compound COc1ccc(OC)c2c(=S)c3ccccc3[nH]c12 , what residual activity is on record?
**Result** 94

**Query** Could you share which residual activity value was measured for Cc1nc(-c2ccccc2)c(-c2ccncc2)o1 ?
**Result** 115

**Query** Entry O=C1NC(=O)c2c1c1c3ccccc3[nH]c1c1[nH]c3cc(Br)ccc3c21 has what residual activity?
**Result** 92

**Query** Requested read-out: residual activity. Entry: Cc1nc2cc3nc(-c4cccs4)cnc3cc2n1C
**Result** 99

**Query** Could you share which residual activity value was measured for CCC(=O)Nc1ccc2ncnc(Nc3cccc(Br)c3)c2c1 ?
**Result** 89

**Query** Which residual activity value is on record for O=C1Nc2cc(Br)ccc2/C1=C1/Nc2ccccc2/C1=N\O ?
**Result** 78

**Query** Fill blank: measured residual activity of the compound Ic1cccc(CSc2nnc(-c3ccncc3)o2)c1 is ____.
**Result** 88

**Query** Look up residual activity: CCOc1cc2ncnc(Nc3cccc(Br)c3)c2cc1OCC
**Result** 95

**Query** Requested read-out: residual activity. Entry: COc1cc2ncnc(Nc3ccc(NC(=O)c4ccccc4)cc3)c2cc1OC
**Result** 90

**Query** Need residual activity, item O=C1Nc2ccccc2/C1=C1/Nc2ccccc2/C1=N\OCCC(O)CO (stereo not given)
**Result** 44

**Query** For O=C(Nc1cccc(Nc2nccc(Nc3cccc(C(F)(F)F)c3)n2)c1)C1CC1 , what is its reported residual activity?
**Result** 90

**Query** Given COc1cccc(-c2cc(=O)c3ccccc3o2)c1N , state its recorded residual activity.
**Result** 114

**Query** Bench note: what residual activity did O=c1cc(-c2cccc3c2Sc2ccccc2S3)oc(N2CCOCC2)c1 show?
**Result** 81

**Query** Could you tell me which residual activity is on file for O=C1c2ccccc2-[n+]2ccc3c([nH]c4ccccc43)c21 ?
**Result** 83

**Query** Entry O=C1Nc2ccc(Br)cc2/C1=C\c1cc2c([nH]1)CCCC2 : reported residual activity = ?
**Result** 105

**Query** If you can, please state the reported residual activity value of CO[C@@H]1[C@H](N(C)C(=O)c2ccccc2)C[C@H]2O[C@]1(C)n1c3ccccc3c3c4c(c5c6ccccc6n2c5c31)C(=O)NC4 .
**Result** 4

**Query** Consider the compound COc1ccc(C(=O)Nc2sc3c(c2C(N)=O)CCCC3)cc1OC and give its measured residual activity.
**Result** 79

**Query** I would be grateful if you could share the reported residual activity for CCN(CC)CCCCN1c2ccccc2Oc2ccc(Cl)cc21 .
**Result** 97

**Query** Entry COc1ccc(CNc2nc(N(CCO)CCO)nc3c2ncn3C(C)C)cc1 : reported residual activity = ?
**Result** 109

**Query** Can you share its residual activity? I mean this compound: Nc1n[nH]c2nnc(-c3c(-c4ccccc4)nn4ccccc34)cc12
**Result** 92

**Query** Sample CN(C)c1ccc(/C=C2\C(=O)Nc3ccccc32)cc1 — what was its residual activity?
**Result** 65

**Query** Entry CC(C)n1cnc2c(NCc3ccccc3)nc(NCCCO)nc21 : reported residual activity = ?
**Result** 95

**Query** Suppose we examine the compound CC(=O)O/N=C1\C(=C2\C(=O)Nc3cc(Br)ccc32)Nc2ccccc21 ; what residual activity value has been reported?
**Result** 102

**Query** // residual activity lookup, key: Cc1cncc2cccc(S(=O)(=O)N3CCCN(C(=O)CN)C[C@H]3C)c12
**Result** 74
